Details: buffer; pH 7.4; 200.0 µM
Answer each item with its documented solubility kinetic.
One number for each entry, in µg/mL.

>>> observedvalue("CSc1ccccc1C(=O)OCC(=O)Nc1ccc(N2CCOCC2)cc1")
9.3
>>> observedvalue("O=C(CN1C(=O)c2cccc3cccc1c23)NC1CCCC1")
4.4
>>> observedvalue("O=C(CN1C(=O)c2ccccc2C1=O)NC1CCCCC1")
33.4

Turning now to a further record.
Recorded solubility kinetic for COc1cc(NC(=O)c2ccccc2[N+](=O)[O-])ccc1NC(=O)c1cc2ccccc2o1 , please?
0.7

----------
Details: buffer; pH 7.4; 200.0 µM
measureName: solubility kinetic

Please state solubility kinetic for every compound in the list that follows.
1. O=c1ccn(CCc2c[nH]c3ccccc23)c2c1CCCC2
2. CCOc1ccc(S(=O)(=O)Nc2cc(NS(=O)(=O)c3ccc(OCC)cc3)cc(C(=O)O)c2)cc1
3. Cc1ccc(-n2c(C)cc(=O)cc2C)cc1[N+](=O)[O-]
4. c1ccc(N2CCOCCOCCOCCOCC2)cc1

1. > 43.9 µg/mL
2. > 78.1 µg/mL
3. > 38.7 µg/mL
4. > 44.3 µg/mL

----------
Details: buffer; pH 7.4; 200.0 µM
Answer each item with its documented solubility kinetic.

>>> observedvalue("CC(=O)N1CCCc2cc(S(=O)(=O)N3CCCC3)ccc21")
"> 46.3 µg/mL"

Please state solubility kinetic for every compound in the list that follows.
1. COc1ccc(N2CCN(c3nccs3)CC2)cc1
2. O=C(O)C1CCCN1S(=O)(=O)c1ccc(Br)cc1 (stereo unspecified)
3. Cc1cc(=O)[nH]c(SCC(=O)N2CCN(C(=O)c3ccco3)CC2)n1
4. NCCCS(=O)(=O)O
5. Cc1ccc(CN2CCS(=O)(=O)CC2)o1

1. > 41.3 µg/mL
2. > 50.1 µg/mL
3. > 54.4 µg/mL
4. < 0.3 µg/mL
5. > 34.4 µg/mL

----------
Details: buffer; pH 7.4; 200.0 µM
measureName: solubility kinetic

>>> observedvalue("CCOC(=O)CSc1nc(-c2ccccc2)nc2ccc(C)cc12")
"< 0.4 µg/mL"
>>> observedvalue("CC(=O)c1ccc(NC(=O)C[n+]2ccccc2)cc1.[Cl-]")
"> 43.6 µg/mL"

Please state solubility kinetic for every compound in the list that follows.
1. Cc1cc(NC(=O)C(C)SCC(=O)N(C)Cc2c(F)cccc2Cl)no1 (configuration not stated)
2. O=C(CCc1nnc(CCC2CCCCC2)o1)NCc1ccon1
3. Cc1cc(C)c(OCC(=O)Nc2cc(C(=O)O)cc(C(=O)O)c2)cc1C

1. > 60 µg/mL
2. > 49.9 µg/mL
3. > 53.6 µg/mL

Please state solubility kinetic for every compound in the list that follows.
1. COc1ccc(NS(=O)(=O)c2ccc(-c3ccccn3)s2)cc1
2. CSc1nc(N)nc(C(C)C)n1
3. Cc1c(O)ccc(C(=O)CN2CCN(c3ccccc3F)CC2)c1O

1: 0.8 µg/mL; 2: > 27.6 µg/mL; 3: 13.7 µg/mL

Please state solubility kinetic for every compound in the list that follows.
1. Cc1cc(CNC(=O)Cc2ccccc2)c2ccccc2n1
2. Cc1ccc(O)c(-c2cc(-c3ccc(F)cc3)no2)c1
3. Cc1c(NS(=O)(=O)c2cccs2)cccc1-c1nc2cccnc2s1
4. O=C(NC1CCCc2ccccc21)c1cc(F)cc(F)c1 (configuration not stated)
5. CCC(=O)Nc1cccc(-c2nc3ncccc3o2)c1C
6. CN(C/C=C/c1ccccc1[N+](=O)[O-])Cc1ccccc1

1. > 43.6 µg/mL
2. < 0.6 µg/mL
3. 2.4 µg/mL
4. 2.6 µg/mL
5. > 42.2 µg/mL
6. 19.2 µg/mL

Please state solubility kinetic for every compound in the list that follows.
1. CC(NC(=O)CCCC1CCCCC1)c1ccc(S(N)(=O)=O)cc1 (configuration not stated)
2. CS(=O)(=O)N(CC(=O)N1CCCCCC1)c1cccc([N+](=O)[O-])c1

1. > 52.9 µg/mL
2. > 53.3 µg/mL

Recorded solubility kinetic for CCN(CC(=O)Nc1c(F)cccc1F)C(=O)C1CC1 , please?
40.7 µg/mL

Origin of the recorded values: PubChem BioAssay AID1996
